log(ratio) overview
# Tested on: Trametes versicolor
# assay-overview: Antifungal activity against Trametes versicolor after 3 to 5 days by paper disc method relative to 1227
# Type: functional
endpoint: log(ratio)

molecule	assay-system	result
CC(C)C1=CC2=CC[C@@H]3[C@](C)(CCC[C@@]3(C)C(=O)OCC(O)C[N+](C)(C)CC[N+](C)(C)CC(O)COC(=O)[C@]3(C)CCC[C@@]4(C)[C@H]3CC=C3C=C(C(C)C)CC[C@@H]34)[C@H]2CC1 (some centres undefined)	Trametes versicolor	1.7533
CC[N+](CC)(CC)CC(O)COC(=O)[C@]1(C)CCC[C@]2(C)c3ccc(C(C)C)cc3CC[C@@H]12 (some centres undefined)	Trametes versicolor	1.7533
CC(C)C1CC[C@H]2C(CC[C@@H]3[C@]2(C)CCC[C@@]3(C)C(=O)O)C1 (some centres undefined)	Trametes versicolor	1.426
CC(C)c1ccc2c(c1)CC[C@H]1[C@](C)(C(=O)OCC(O)C[N+](C)(C)C)CCC[C@]21C (some centres undefined)	Trametes versicolor	1.7782
CC(C)C1=CC23CC[C@@H]4[C@](C)(CCC[C@@]4(C)C(=O)OCC(O)CCl)[C@H]2CC1CC3C(=O)OCC(O)CCl (some centres undefined)	Trametes versicolor	1.426
CC[N+](CC)(CC)CC(O)COC(=O)[C@]1(C)CCC[C@@]2(C)[C@H]1CCC1CC(C(C)C)CC[C@@H]12 (some centres undefined)	Trametes versicolor	1.7533
CC(C)c1ccc2c(c1)CC[C@H]1[C@](C)(C(=O)OCC(O)CN(C)C)CCC[C@]21C (some centres undefined)	Trametes versicolor	1.6368
CC(C)C1=CC23CC[C@@H]4[C@](C)(CCC[C@@]4(C)C(=O)O)[C@H]2CC1CC3C(=O)O (some centres undefined)	Trametes versicolor	1.426
CC(C)C1=CC23CC[C@@H]4[C@](C)(CCC[C@@]4(C)C(=O)OCC(O)CN(C)C)[C@H]2CC1CC3C(=O)OCC(O)CN(C)C (some centres undefined)	Trametes versicolor	1.669
CC(C)C1=CC23CC[C@@H]4[C@](C)(CCC[C@@]4(C)C(=O)OCC(O)C[N+](C)(C)C)[C@H]2CC1CC3C(=O)OCC(O)C[N+](C)(C)C (some centres undefined)	Trametes versicolor	1.8451
CC(C)C1=CC2=CC[C@@H]3[C@](C)(CCC[C@@]3(C)C(=O)OCC(O)C[N+](C)(C)CC3CO3)[C@H]2CC1 (some centres undefined)	Trametes versicolor	1.669
CC[N+](CC)(CC(O)COC(=O)[C@]1(C)CCC[C@@]2(C)[C@H]1CCC1CC(C(C)C)CC[C@@H]12)CC1CO1 (some centres undefined)	Trametes versicolor	1.6021
CCN(CC)CC(O)COC(=O)[C@]1(C)CCC[C@@]2(C)[C@H]1CCC1CC(C(C)C)CC[C@@H]12 (some centres undefined)	Trametes versicolor	1.5229
CC(C)C1=CC2=CC[C@@H]3[C@](C)(CCC[C@@]3(C)C(=O)O)[C@H]2CC1	Trametes versicolor	1.426
CC(C)C1CC[C@H]2C(CC[C@@H]3[C@]2(C)CCC[C@@]3(C)C(=O)OCC(O)CCl)C1 (some centres undefined)	Trametes versicolor	1.426
CC(C)c1ccc2c(c1)CC[C@H]1[C@](C)(C(=O)O)CCC[C@]21C [DEHYDROABIETIC ACID]	Trametes versicolor	1.4771
CC[N+](CC)(CC(O)COC(=O)C1CC2C[C@H]3C1(C=C2C(C)C)CC[C@@H]1[C@]3(C)CCC[C@@]1(C)C(=O)OCC(O)C[N+](CC)(CC)CC1CO1)CC1CO1 (some centres undefined)	Trametes versicolor	1.8016
CC(C)c1ccc2c(c1)CC[C@H]1[C@](C)(C(=O)OCC(O)CCl)CCC[C@]21C (some centres undefined)	Trametes versicolor	1.4771
CC[N+](CC)(CC)CC(O)COC(=O)C1CC2C[C@H]3C1(C=C2C(C)C)CC[C@@H]1[C@]3(C)CCC[C@@]1(C)C(=O)OCC(O)C[N+](CC)(CC)CC (some centres undefined)	Trametes versicolor	1.8239
CC(C)C1=CC23CC[C@@H]4[C@](C)(CCC[C@@]4(C)C(=O)OCC(O)C[N+](C)(C)CC4CO4)[C@H]2CC1CC3C(=O)OCC(O)C[N+](C)(C)CC1CO1 (some centres undefined)	Trametes versicolor	1.7782
CC(C)C1CC[C@H]2C(CC[C@@H]3[C@]2(C)CCC[C@@]3(C)C(=O)OCC(O)C[N+](C)(C)C)C1 (some centres undefined)	Trametes versicolor	1.727
CC(C)c1ccc2c(c1)CC[C@H]1[C@](C)(C(=O)OCC(O)C[N+](C)(C)CC3CO3)CCC[C@]21C (some centres undefined)	Trametes versicolor	1.699
CCOC(=O)[C@]1(C)CCC[C@@]2(C)[C@H]1CC=C1C=C(C(C)C)CC[C@@H]12	Trametes versicolor	1.426
CC(C)C1=CC2=CC[C@@H]3[C@](C)(CCC[C@@]3(C)C(=O)OCC(O)CCl)[C@H]2CC1 (some centres undefined)	Trametes versicolor	1.426
